// provenance: the supplement of paper PMC4466140

Consider the following binders; for each one, report its SPOT peptide array binding signal intensity.
Target: CaAbp1-D2
Assay: SPOT peptide array binding signal intensity (averaged, normalized) (arbitrary units (background-subtracted, floor 0; scale differs between SH3 domains)); higher = stronger binding of the SH3 domain to the peptide
API doc: respond with a numeric literal and nothing else, no unit.

Could you please provide reported SPOT peptide array binding signal intensity for `DAPASKPSVPPRNYF` ? Thanks!
3

Could you please provide reported SPOT peptide array binding signal intensity for `GLRRARYKFPGQQKI` ? Thanks!
257

Could you please provide reported SPOT peptide array binding signal intensity for `SSAAPPPPPRRATPE` ? Thanks!
23

Could you please provide reported SPOT peptide array binding signal intensity for `RRRDFGAPANKRPRR` ? Thanks!
126

Could you please provide reported SPOT peptide array binding signal intensity for `ANNQGPPNLPARDKS` ? Thanks!
18.5

Could you please provide reported SPOT peptide array binding signal intensity for `LLGRKRPVMERVVDI` ? Thanks!
51
